assayTarget: UniProt Q14765
Sequence (Q14765 1-748): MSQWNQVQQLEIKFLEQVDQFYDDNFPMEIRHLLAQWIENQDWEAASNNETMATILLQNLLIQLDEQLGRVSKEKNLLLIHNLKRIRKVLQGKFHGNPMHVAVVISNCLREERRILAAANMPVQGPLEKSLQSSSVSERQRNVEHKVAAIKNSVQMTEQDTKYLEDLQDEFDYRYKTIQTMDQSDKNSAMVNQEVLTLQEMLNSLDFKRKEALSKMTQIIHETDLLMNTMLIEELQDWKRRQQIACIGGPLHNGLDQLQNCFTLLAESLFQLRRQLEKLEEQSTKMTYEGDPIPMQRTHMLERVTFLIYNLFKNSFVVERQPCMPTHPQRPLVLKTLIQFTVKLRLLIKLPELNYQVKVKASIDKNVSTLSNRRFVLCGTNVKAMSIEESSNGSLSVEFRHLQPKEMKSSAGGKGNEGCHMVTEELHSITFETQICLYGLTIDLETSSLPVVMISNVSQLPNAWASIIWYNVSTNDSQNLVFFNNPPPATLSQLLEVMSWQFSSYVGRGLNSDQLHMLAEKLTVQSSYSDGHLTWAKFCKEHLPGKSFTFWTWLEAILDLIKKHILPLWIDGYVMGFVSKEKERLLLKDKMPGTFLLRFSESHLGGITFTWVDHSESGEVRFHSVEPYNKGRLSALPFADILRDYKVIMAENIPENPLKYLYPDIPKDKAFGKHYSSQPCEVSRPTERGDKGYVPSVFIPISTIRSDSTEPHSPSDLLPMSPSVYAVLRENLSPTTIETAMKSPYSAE
protocol: Competitive fluorescence polarization (FP) assay, STAT4
Format: binding
runParameters: no reducing agent, 2 hr; read-out: IC50 STAT4 (FP assay), no reducing agent
pIC50: −log10 of the molar value.
measuredEndpoint: pIC50

structureNotation	quantitativeReadout
Cc1nc(/N=N/c2ccc(S(=O)(=O)O)cc2S(=O)(=O)O)c(COP(=O)(O)O)c(C=O)c1O	5.62

* * *

assayTarget: STAT4 (Homo sapiens, UniProt Q14765)
protocol: Competitive fluorescence polarization (FP) assay, STAT4
Assay type: binding
runParameters: IC50 STAT4 (FP assay), 1 mM DTT, 2 hr
measuredEndpoint: IC50 (nM)

structureNotation	unitAbbreviation	quantitativeReadout
Cc1nc(/N=N/c2ccc(S(=O)(=O)O)cc2S(=O)(=O)O)c(COP(=O)(O)O)c(C=O)c1O	nM	2500

* * *

assayTarget: STAT5a (Homo sapiens, UniProt P42229)
Sequence (P42229 whole entry, species assumed): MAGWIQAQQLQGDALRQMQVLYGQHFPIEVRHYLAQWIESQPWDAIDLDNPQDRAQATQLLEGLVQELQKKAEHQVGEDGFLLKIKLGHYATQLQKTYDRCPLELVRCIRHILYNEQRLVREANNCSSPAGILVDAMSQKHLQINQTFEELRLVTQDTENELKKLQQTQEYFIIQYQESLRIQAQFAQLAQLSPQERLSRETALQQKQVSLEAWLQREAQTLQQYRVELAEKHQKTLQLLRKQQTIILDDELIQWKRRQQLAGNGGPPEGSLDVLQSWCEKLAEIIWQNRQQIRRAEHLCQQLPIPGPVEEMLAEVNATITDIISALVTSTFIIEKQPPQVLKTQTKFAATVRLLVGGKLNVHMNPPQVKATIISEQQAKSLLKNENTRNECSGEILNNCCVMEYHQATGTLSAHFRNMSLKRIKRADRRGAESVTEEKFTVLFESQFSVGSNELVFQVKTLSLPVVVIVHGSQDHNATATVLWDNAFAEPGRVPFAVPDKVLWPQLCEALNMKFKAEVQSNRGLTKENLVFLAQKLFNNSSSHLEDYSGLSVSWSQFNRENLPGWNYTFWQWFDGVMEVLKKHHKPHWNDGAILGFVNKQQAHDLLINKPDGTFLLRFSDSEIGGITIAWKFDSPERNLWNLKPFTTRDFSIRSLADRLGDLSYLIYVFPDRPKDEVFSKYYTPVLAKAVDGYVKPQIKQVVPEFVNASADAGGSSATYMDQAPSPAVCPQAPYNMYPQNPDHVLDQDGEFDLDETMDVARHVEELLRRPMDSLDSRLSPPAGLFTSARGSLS
protocol: Competitive fluorescence polarization (FP) assay, STAT5a
Format: binding
runParameters: no reducing agent, 1 h
Source text: Screening of chemical libraries Screening of chemical libraries comprising approximately 5000 known bioactive compounds in fluorescence polarization-based assays against phosphorylation-dependent protein-protein interaction domains, including STAT proteins, has been described.[1] […] Fluorescence polarization assays Competitive fluorescence polarization (FP) assays for STAT1,[2] […] CFGp[…]-OH. […] Curves were plotted and best fits calculated using OriginPro […]

structureNotation	IC50, µM
Cc1nc(/N=N/c2ccc(S(=O)(=O)O)cc2S(=O)(=O)O)c(COP(=O)(O)O)c(C=O)c1O	1.5
Cc1nc(/N=N/c2cc(S(=O)(=O)O)ccc2S(=O)(=O)O)c(COP(=O)(O)O)c(C=O)c1O	4.8

* * *

Recorded IC50, one value per entry.
assayTarget: STAT6 (Homo sapiens, UniProt P42226)
Sequence (P42226 1-847): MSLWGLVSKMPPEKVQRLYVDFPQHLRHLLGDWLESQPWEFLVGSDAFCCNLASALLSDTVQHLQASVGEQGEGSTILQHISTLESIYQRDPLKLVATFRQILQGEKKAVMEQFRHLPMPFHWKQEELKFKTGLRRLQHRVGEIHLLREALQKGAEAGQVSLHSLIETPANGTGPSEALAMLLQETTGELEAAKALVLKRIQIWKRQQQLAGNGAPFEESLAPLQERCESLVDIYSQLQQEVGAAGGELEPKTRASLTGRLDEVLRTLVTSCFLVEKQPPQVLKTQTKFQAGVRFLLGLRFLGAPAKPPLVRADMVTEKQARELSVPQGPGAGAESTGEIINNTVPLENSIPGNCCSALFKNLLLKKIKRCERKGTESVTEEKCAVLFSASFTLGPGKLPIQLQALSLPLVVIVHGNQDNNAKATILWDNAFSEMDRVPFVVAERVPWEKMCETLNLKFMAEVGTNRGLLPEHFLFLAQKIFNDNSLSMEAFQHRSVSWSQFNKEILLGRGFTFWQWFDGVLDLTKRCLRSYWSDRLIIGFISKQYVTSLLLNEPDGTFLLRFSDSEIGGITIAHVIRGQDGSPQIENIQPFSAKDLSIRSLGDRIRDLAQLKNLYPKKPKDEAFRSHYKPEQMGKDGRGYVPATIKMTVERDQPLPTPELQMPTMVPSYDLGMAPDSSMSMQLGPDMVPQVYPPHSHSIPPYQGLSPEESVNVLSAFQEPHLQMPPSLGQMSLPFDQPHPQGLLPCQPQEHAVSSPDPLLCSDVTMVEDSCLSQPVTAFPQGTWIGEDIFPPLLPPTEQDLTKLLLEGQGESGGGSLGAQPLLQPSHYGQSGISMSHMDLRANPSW

compound	IC50 / µM
Cc1nc(/N=N/c2cc(S(=O)(=O)O)ccc2S(=O)(=O)O)c(COP(=O)(O)O)c(C=O)c1O [iso‐PPADS]	66
Cc1nc(/N=N/c2ccc(S(=O)(=O)O)cc2S(=O)(=O)O)c(COP(=O)(O)O)c(C=O)c1O [PPADS]	20.1

* * *

assayTarget: STAT3 (Homo sapiens)
Sequence (P40763 whole entry, species assumed): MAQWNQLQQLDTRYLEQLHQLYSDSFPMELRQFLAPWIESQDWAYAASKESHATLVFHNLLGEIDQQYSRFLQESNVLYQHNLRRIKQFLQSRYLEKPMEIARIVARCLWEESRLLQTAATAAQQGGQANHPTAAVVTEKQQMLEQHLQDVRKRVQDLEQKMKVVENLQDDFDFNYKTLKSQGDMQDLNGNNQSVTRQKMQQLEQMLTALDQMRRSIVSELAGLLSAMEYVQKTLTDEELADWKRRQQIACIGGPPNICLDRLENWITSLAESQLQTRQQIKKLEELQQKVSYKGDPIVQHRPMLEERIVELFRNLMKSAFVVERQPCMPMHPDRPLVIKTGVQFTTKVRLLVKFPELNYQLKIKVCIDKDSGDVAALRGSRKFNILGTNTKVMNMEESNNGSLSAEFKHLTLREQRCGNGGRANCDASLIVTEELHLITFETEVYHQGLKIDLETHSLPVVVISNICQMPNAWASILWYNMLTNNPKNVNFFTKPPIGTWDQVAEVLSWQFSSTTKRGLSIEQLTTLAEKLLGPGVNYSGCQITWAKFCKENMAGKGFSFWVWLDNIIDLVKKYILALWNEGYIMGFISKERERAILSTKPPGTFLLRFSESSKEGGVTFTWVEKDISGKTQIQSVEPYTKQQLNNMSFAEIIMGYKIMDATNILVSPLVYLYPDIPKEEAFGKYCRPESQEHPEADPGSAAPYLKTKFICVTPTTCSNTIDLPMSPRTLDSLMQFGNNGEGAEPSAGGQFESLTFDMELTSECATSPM
protocol: HTRF assay, STAT3
Type: binding
Set-up: the endogenous full‐length proteins (between 748 and 793 amino acids for STAT3/4/5a/5b); endogenous in cells; host or cells: NK-92 cells (DSMZ), whole-cell lysate
runParameters: STAT3 110 nM, without reducing agent, 1 h
Recorded IC50, one value per entry.
measuredEndpoint: IC50 (µM)

compound	assayTarget	quantitativeReadout
Cc1nc(/N=N/c2cc(S(=O)(=O)O)ccc2S(=O)(=O)O)c(COP(=O)(O)O)c(C=O)c1O [iso‐PPADS]	STAT3 (Homo sapiens)	31.9
Cc1nc(/N=N/c2ccc(S(=O)(=O)O)cc2S(=O)(=O)O)c(COP(=O)(O)O)c(C=O)c1O [PPADS]	STAT3 (Homo sapiens)	29.6

* * *

assayTarget: STAT4 (Homo sapiens, UniProt Q14765)
Sequence (Q14765 1-748): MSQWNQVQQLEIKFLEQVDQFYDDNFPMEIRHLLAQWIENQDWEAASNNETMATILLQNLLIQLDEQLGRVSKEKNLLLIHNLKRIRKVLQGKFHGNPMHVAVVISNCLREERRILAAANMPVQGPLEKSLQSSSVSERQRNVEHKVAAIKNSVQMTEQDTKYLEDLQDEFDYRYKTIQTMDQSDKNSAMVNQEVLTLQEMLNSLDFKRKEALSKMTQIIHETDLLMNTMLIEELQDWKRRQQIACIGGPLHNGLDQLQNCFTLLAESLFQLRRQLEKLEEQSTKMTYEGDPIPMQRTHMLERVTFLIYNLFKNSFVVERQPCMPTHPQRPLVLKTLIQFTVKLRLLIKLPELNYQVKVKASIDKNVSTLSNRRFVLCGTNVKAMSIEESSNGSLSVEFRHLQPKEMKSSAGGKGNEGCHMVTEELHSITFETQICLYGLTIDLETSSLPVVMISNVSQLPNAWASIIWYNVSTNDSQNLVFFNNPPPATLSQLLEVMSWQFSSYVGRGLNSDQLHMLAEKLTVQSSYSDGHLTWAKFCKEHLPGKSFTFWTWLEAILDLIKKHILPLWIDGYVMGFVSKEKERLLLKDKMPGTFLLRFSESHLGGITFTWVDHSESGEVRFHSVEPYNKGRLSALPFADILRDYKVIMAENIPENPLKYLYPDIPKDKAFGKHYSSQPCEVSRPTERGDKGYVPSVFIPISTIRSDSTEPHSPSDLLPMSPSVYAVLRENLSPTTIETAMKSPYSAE
protocol: Competitive fluorescence polarization (FP) assay, STAT4
Assay type: binding
runParameters: IC50 STAT4 (FP assay), 1 mM TCEP, 2 hr
pIC50: −log10 of the molar value.

compound	pIC50
Cc1nc(/N=N/c2ccc(S(=O)(=O)O)cc2S(=O)(=O)O)c(COP(=O)(O)O)c(C=O)c1O [PPADS]	5.62

* * *

assayTarget: STAT4 (Homo sapiens, UniProt Q14765)
Sequence (Q14765 1-748): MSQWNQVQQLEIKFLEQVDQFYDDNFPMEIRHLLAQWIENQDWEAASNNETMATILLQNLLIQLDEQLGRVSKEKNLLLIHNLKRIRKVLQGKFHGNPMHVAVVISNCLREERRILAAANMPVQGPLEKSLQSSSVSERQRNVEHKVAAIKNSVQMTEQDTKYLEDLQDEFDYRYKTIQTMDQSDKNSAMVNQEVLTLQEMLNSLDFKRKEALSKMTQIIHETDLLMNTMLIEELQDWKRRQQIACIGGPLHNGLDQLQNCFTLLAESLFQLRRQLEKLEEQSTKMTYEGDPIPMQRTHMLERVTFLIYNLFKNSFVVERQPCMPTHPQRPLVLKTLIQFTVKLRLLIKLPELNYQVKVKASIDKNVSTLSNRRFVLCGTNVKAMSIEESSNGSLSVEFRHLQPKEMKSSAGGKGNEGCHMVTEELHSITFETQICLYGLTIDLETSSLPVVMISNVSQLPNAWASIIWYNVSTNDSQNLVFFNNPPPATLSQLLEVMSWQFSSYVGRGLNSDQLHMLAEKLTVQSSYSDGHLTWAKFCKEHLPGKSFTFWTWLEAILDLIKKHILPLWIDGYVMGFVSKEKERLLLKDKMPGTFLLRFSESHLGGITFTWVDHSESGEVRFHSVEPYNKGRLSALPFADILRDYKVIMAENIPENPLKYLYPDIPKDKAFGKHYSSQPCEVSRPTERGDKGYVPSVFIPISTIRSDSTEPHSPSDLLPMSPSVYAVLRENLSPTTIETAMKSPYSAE
protocol: Competitive fluorescence polarization (FP) assay, STAT4
Assay type: binding
runParameters: IC50 STAT4 (FP assay), 1 mM DTT, 3 hr

compound	IC50 [µM]
Cc1nc(/N=N/c2ccc(S(=O)(=O)O)cc2S(=O)(=O)O)c(COP(=O)(O)O)c(C=O)c1O [PPADS]	3.7
